meta.source: patent EP1655284A1

Below, each entry is listed alongside its reported pIC50.
System: Jily
Experiment: MTS proliferation assay
Type: cell-based
Settings: 72 h incubation
Description: The assay is performed in 96 well tissue culture plates. The cells (range : 1.5*10^3 - 10^4) are seeded out in 80 µl complete medium 24 h prior to compound treatment. The test compounds are added in 20 µl complete medium containing max 5% DMSO. The final compound concentrations in the assays are 10 µM, 3 µM, 1 µM and 0.3 µM, respectively. […] Subsequently, the plates are shortly shaked and absorption measured with a microplate-reader at 492 nm. […]
pIC50: −log10 of the molar value.
QUANTITY_MEASURED: pIC50

1. COc1ccc(S(=O)(=O)n2cc(C(=O)Nc3ccc(N4CCOCC4)cc3)cc2-c2cc(OC)c(OC)c(OC)c2)cc1 [Example 3]
> 7.00
2. COc1ccc(S(=O)(=O)n2cc(Br)cc2-c2cc(OC)c(OC)c(OC)c2)cc1 [Example 1]
6.00 to 7.00
3. COc1ccc(S(=O)(=O)n2cccc2-c2cc(OC)c(OC)c(OC)c2)cc1 [Example 2]
> 7.00
